The origin of these recorded values is patent US20220315554A1.

Target: FAP-expressing human WI-38 fibroblasts (Homo sapiens, UniProt Q12884)
Construct: FAP-expressing human WI-38 fibroblasts (ECACC) were cultured in EMEM; host or cells: WI-38 human fibroblasts
Sequence (Q12884 whole entry): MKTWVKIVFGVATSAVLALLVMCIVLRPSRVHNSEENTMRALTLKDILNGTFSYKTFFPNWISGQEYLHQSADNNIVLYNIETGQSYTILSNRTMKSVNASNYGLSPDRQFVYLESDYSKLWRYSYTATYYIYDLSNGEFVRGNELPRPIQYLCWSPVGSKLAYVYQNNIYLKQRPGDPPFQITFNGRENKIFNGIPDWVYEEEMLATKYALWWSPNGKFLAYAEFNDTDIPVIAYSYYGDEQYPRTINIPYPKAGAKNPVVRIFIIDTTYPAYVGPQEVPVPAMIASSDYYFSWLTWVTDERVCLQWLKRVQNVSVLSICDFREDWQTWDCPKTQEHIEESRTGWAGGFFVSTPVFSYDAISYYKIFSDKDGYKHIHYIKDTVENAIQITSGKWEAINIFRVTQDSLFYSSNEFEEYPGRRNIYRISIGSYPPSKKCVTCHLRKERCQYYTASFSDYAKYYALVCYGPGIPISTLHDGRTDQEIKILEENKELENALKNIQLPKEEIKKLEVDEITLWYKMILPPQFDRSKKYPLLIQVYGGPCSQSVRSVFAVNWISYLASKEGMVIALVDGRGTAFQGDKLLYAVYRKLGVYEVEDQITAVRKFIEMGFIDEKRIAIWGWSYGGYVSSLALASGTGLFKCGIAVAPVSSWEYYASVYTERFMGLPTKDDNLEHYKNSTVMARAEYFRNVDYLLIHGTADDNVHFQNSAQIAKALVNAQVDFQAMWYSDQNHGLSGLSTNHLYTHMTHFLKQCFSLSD
Experiment: Competitive FACS binding assay
Settings: pIC50 Category (FACS), competition with 3 nM Cy5-labeled compound, WI-38 fibroblasts, 4° C., 1 hour
Numbered stars: 1 amine (or outer) side, 2 acyl side, 3 side chain; on linkers, the order of the positions; unused ones are H or OH. Bridge positions count the residues as written; N and C are the ends. Peptide text beside a SMILES is read from it. * marks the point of attachment. mXylylene = c1cc(C[*:1])cc(C[*:2])c1; Hexanoyl = CCCCCC(=O)*
A collection of compounds and their measured IC50

COMPOUND	SUBJECT_OF_TEST	IC50
CCCCCC(=O)N[C@H]1CSCc2cccc(c2)CSC[C@@H](C(N)=O)NC(=O)[C@H](C)NC(=O)[C@H](CCC(=O)O)NC(=O)[C@H]([C@@H](C)O)NC(=O)[C@@H]2CCCN2C(=O)[C@@H]2CCCN2C1=O [3BP-3350] (Hexanoyl-CPPTEAC-NH2; linker 1-7 via mXylylene)	FAP-expressing human WI-38 fibroblasts (Homo sapiens, UniProt Q12884)	> 1000 nM

// moving on: another record for IC50
Recorded IC50 of CSCC[C@H](NC(C)=O)C(=O)N[C@H]1CSCc2cccc(c2)CSC[C@@H](C(=O)N[C@@H](CC(=O)O)C(=O)N[C@@H](C)C(=O)N[C@@H](Cc2ccccc2)C(=O)N[C@@H](CCCNC(=N)N)C(=O)N[C@@H](CC(=O)O)C(N)=O)NC(=O)[C@H](Cc2ccccc2)NC(=O)[C@H](CCC(=O)O)NC(=O)[C@H]([C@@H](C)O)NC(=O)[C@@H]2CCCN2C(=O)[C@@H]2CCCN2C1=O [3BP-3195] (Ac-MCPPTEFCDAFRD-NH2; linker 2-8 via mXylylene) , please.
< 10 nM

---

A collection of compounds and their measured Kd
Target: Human recombinant FAP (Homo sapiens, UniProt Q12884)
Assay: Surface plasmon resonance (Biacore) assay
Numbered stars: 1 amine (or outer) side, 2 acyl side, 3 side chain; on linkers, the order of the positions; unused ones are H or OH. Bridge positions count the residues as written; N and C are the ends. Square brackets hold non-standard residues; d marks the D form. Peptide text beside a SMILES is read from it. * marks the point of attachment. mXylylene = c1cc(C[*:1])cc(C[*:2])c1; 3Amb = NCc1cccc(C(=O)O)c1; Hexanoyl = CCCCCC(=O)*

COMPOUND	QUANTITY	EXPERIMENTAL_VALUE
CCCCCC(=O)N[C@H]1CSCc2cccc(c2)CSC[C@@H](C(=O)N[C@@H](CC(=O)O)C(=O)NCc2cccc(C(=O)N[C@@H](CCCNC(=N)N)C(N)=O)c2)NC(=O)[C@H](Cc2ccccc2)NC(=O)[C@H](CCC(=O)O)NC(=O)[C@H]([C@@H](C)O)NC(=O)[C@@H]2CCCN2C(=O)[C@@H]2CCCN2C1=O [3BP-3324] (Hexanoyl-CPPTEFCD[3Amb]R-NH2; linker 1-7 via mXylylene)	Kd	< 10 nM

// moving on: another record for Kd
Recorded Kd of `CCCCCC(=O)N[C@H]1CSCc2cc(CSCCNC(=O)CN3CCN(CC(=O)O)CCN(CC(=O)O)CCN(CC(=O)O)CC3)cc(c2)CSC[C@@H](C(=O)O)NC(=O)[C@H](Cc2ccccc2)NC(=O)[C@H](CCC(N)=O)NC(=O)[C@H]([C@@H](C)O)NC(=O)[C@@H]2CCCN2C(=O)[C@@H]2CCCN2C1` , please.
< 10 nM
